- System: Cabbage Looper (CL) (Trichoplusia ni)
- test.method.notes: Bioassay on cabbage looper (CL), 128-well diet tray assay
- Type: in vivo
- assay.context: Table 5, prophetic compounds subsequently exemplified; cabbage looper
reported.property: CL Rating

// worked examples, CL Rating included
molecule: C[C@@H](NC(=O)c1ccc(/C=C/C(c2cccc(OC(F)(F)F)c2)C(F)(F)F)cc1C(F)(F)F)C(=O)NCC(F)(F)F (stereo partly shown)
CL Rating: A (50-100)
--
molecule: CC(NC(=O)CNC(=O)c1ccc(/C=C/C(c2cc(Cl)c(Cl)c(Cl)c2)C(F)(F)F)cc1Br)C(F)(F)F (stereo not shown)
CL Rating: A (50-100)
--
molecule: CSc1cc(/C=C/C(c2cc(Cl)c(F)c(Cl)c2)C(F)(F)F)ccc1C(=O)NCC(=O)NCC(F)(F)F (stereo not shown)
CL Rating: A (50-100)
--
molecule: O=C(CNC(=O)c1ccc(/C=C/C(c2cc(Br)cc(Br)c2)C(F)(F)F)cc1C(F)(F)F)NCC(F)(F)F (stereo not shown)
CL Rating: A (50-100)

The value of CL Rating measured for the molecule CCNC(=O)[C@@H](C)NC(=O)c1ccc(/C=C/C(c2cc(Cl)c(Cl)c(Cl)c2)C(F)(F)F)cc1Br (stereo partly shown) turned out to be A (50-100)

Documented CL Rating of C[C@@H](NC(=O)c1ccc(/C=C/C(c2cc(Cl)cc(Cl)c2)C(F)(F)F)cc1Br)C(=O)NCC(F)(F)F (stereo partly shown) : A (50-100)

* * *

- Test system: Beet Armyworm (BAW) (spodoptera exigua)
- test.method.notes: Bioassay on beet armyworm (BAW), 128-well diet tray assay
- Type: in vivo
- assay.context: Table 5, prophetic compounds subsequently exemplified; beet armyworm
reported.property: BAW Rating

The cases that follow already have their BAW Rating on record.
molecule: O=C(CNC(=O)c1ccc(/C=C/C(c2cc(Cl)c(F)c(Cl)c2)C(F)(F)F)cc1C(F)(F)F)NCC(F)(F)F (stereo not shown)
test.value: A (50-100)
//
molecule: C[C@@H](NC(=O)c1ccc(/C=C/C(c2ccc(F)c(C#N)c2)C(F)(F)F)cc1C(F)(F)F)C(=O)NCC(F)(F)F (stereo partly shown)
test.value: A (50-100)
//
molecule: O=C(CNC(=O)c1ccc(/C=C/C(c2ccc(F)c(C(F)(F)F)c2)C(F)(F)F)cc1Br)NCC(F)(F)F (stereo not shown)
test.value: A (50-100)
//
molecule: CC(NC(=O)c1ccc(/C=C/C(c2cc(Cl)c(Cl)c(Cl)c2)C(F)(F)F)cc1C(F)(F)F)C(=O)NCCF (stereo not shown) [P1618A]
test.value: A (50-100)
//
molecule: CC(NC(=O)CNC(=O)c1ccc(/C=C/C(c2cc(Br)cc(Br)c2)C(F)(F)F)cc1C(F)(F)F)C(F)(F)F (stereo not shown)
test.value: A (50-100)
//
molecule: O=C(CNC(=O)c1ccc(/C=C/C(c2cc(Br)cc(Br)c2)C(F)(F)F)cc1C(F)(F)F)NCC(F)(F)F (stereo not shown)
test.value: A (50-100)

Entry under test: C[C@@H](NC(=O)c1ccc(/C=C/C(c2cc(Br)cc(Br)c2)C(F)(F)F)cc1C(F)(F)F)C(=O)NCCF (stereo partly shown) . Its BAW Rating was A (50-100)

Hey, just so you know, these numbers are from patent US9226501B2.
